Tested on: HCC1143
ASSAY METHOD TEXT: normalised viability (% of control), CellTiter-Blue; higher = more viable cells (about 100 = DMSO control)
EXPERIMENTAL CONTEXT: 10000 nM; incubation time: 72 h
Under this convention, t denotes normalised viability strictly below 80% and f denotes normalised viability at or above 80%.

Consider the worked cases shown below.
[[record]]
compound = "O=C(O)C1(C(=O)O)CCC1.[NH2-].[NH2-].[Pt+2]"
class_name = "f"

[[record]]
compound = "O=C(Cc1ccc(-c2ccc(OCCN3CCOCC3)cc2)cn1)NCc1ccccc1"
class_name = "t"

[[record]]
compound = "Nc1nc(F)nc2c1ncn2[C@@H]1O[C@H](CO)[C@@H](O)[C@@H]1O"
class_name = "t"

[[record]]
compound = "Oc1ncc(N(CCCl)CCCl)c(O)n1"
class_name = "f"

[[record]]
compound = "CCN(CC)CCCC(C)Nc1c2ccc(Cl)cc2nc2ccc(OC)cc12 (configuration not stated)"
class_name = "t"


Let's switch to this compound now.
Asked: is_below(normalised viability, 80%) for CCCS(=O)(=O)Nc1ccc(F)c(C(=O)c2c[nH]c3ncc(-c4ccc(Cl)cc4)cc23)c1F ?
Given back: f
